Attribution: paper PMC7919492

Target: α-glucosidase from baker’s yeast (Saccharomyces cerevisiae)
Construct: purchased Sigma G5003
Sequence (P53341 whole entry): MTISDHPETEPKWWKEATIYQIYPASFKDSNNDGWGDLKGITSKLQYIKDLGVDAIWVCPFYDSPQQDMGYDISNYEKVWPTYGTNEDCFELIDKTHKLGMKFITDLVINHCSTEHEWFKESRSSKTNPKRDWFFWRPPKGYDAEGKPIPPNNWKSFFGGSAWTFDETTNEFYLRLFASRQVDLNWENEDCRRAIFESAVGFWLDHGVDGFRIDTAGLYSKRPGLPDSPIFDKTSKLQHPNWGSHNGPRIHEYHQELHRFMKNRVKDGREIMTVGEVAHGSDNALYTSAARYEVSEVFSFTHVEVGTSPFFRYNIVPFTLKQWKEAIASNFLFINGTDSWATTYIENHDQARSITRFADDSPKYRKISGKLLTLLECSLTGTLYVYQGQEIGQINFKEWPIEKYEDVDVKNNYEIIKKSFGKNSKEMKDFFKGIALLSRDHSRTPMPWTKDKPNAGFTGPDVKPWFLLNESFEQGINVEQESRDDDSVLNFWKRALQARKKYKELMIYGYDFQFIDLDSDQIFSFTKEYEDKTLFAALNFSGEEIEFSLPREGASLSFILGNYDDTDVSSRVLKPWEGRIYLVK
Experiment: biochemical
Format: biochemical
This listing pairs compounds with measured log10 IC50.
Please be aware that the numbers have been log10-transformed from IC50 in nM.

CC1(C)C=Cc2c(O)c(Cc3c(O)c4c(c(C(=O)C=Cc5cccc(O)c5O)c3O)OC(C)(C)C=C4)c(O)c(C(=O)C=Cc3cccc(O)c3O)c2O1 (stereo in doubt) = 3.03

Here's the next entry for you.
Quickly give me recorded log10 IC50 for CC1(C)C=Cc2c(O)c(Cc3c(O)c4c(c(C(=O)C=Cc5ccc(F)cc5)c3O)OC(C)(C)C=C4)c(O)c(C(=O)C=Cc3ccc(F)cc3)c2O1 (stereo in doubt)
3.94
